Assign % Positive to each entry below.
Target: T1, human Siglec-5 expressed on human primary cells (human, UniProt O15389 17-551)
T1 construct: Endogenous receptor on human primary monocytes, dendritic cells, macrophages and neutrophils; also called CD170
T1 sequence: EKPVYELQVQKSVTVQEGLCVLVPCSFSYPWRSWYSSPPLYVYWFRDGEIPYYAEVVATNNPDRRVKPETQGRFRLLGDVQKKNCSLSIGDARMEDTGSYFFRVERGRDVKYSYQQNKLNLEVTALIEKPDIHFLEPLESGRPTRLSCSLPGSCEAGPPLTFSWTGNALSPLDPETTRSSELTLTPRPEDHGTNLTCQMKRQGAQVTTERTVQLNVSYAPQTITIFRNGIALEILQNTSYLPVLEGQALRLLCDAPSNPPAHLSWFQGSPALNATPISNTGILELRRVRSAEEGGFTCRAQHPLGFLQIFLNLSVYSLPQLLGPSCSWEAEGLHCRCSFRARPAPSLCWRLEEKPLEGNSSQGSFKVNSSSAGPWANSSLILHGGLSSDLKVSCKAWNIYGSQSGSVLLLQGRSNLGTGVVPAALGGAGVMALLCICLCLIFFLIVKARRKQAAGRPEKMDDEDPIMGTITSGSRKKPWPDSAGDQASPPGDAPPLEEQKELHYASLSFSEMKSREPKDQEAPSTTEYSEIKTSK
Test: flow cytometry, human primary neutrophils, 10 ug/ml mAb
Give bare numbers, in %.

Below: 5 binders and their reported % Positive.
anti-Siglec-5 monoclonal antibody 9A5 (antibody, IgG1, V domains shown) VH: QVQLQQSGPELVEPGASVKVSCKASGYAFTSYNMYWVKQSHGKSLEWIGYIDPYNGGTYYDQKFKGRATLTVDKSSSTAHMHLNSLTSEDSAVYYCVFFYEYDGFPYWGQGTLVTVSA VL: DIVLTQSPTLMSASPGEKVTMTCSASSSVSYMYWYQQKPRSSPKPLIYLTSNLASGVPARFSGSGSGTSYSLTISSMEAEDAATYYCQQWSSNPLTFGAGTKLELK	98.6
anti-Siglec-5 monoclonal antibody 7A5 (antibody, IgG1, V domains shown) VH: EIQLQQSGPELVKPGASVKVSCKASGYSFTDYNMYWVKQSHGKSLEWIGYIDPYNGGTTYNQKFKGKATLTVDKSSSTAFMHLNSLTSEDSAVFYCAFYYGYYGVPYWGQGTLVTVSA VL: DIVMIQSQKFMSTSVGDRVSVTCKASQNVDTNVAWYQQKPGQSPKALIYSASYRYSGVPDRFTGSGSGTDFTLTISNVQSEDLAEYFCQQYNSFPLTFGSGTKLEIK	94.6
anti-Siglec-5 monoclonal antibody 10B6 (antibody, IgG1, V domains shown) VH: EIQLQQSGPELVKPGASVKVSCKASGYSFTDYNMYWVKQSHGKSLECFGYIDPYNGGPYYNQKFKGKATLTVDKSSSTAFMHLNSLTSEDSAVYYCAFYYGYYGVPYWGQGTLVTVSA VL: DIVMTQSQKFMSTSVGDRVSVTCKASHNVGTSVAWYQQKPGQSPKSLIYSASYRYSGVPDRFTGSGSGTDFTLTISNVQSEDLAEYFCQQYNSYPLTFGSGTKLEIK	94.4
anti-Siglec-5 monoclonal antibody 9B1 (antibody, IgG1, V domains shown) VH: QVQLQQSGAELVKPGASVKLSCKASGYTFTEYTIHWVKQRSGQGLEWIGWFYPGSGSIKYNEKFKDKATLTADKSSSTVYMELSRLTSEDSAVYFCARQEEGGIGFDYWGQGTTLTVSS VL: DVLMTQTPLSLLVSLGDQASISCRSSQSIVHSNGNTYLEWYLQKPGQSPKLLIYKVSIRFSGVPDRFSGSGSGTDFTLKISRVEAEDLGVYYCFQGSHVPWTFGGGTKLEIK	99.2
anti-Siglec-5 monoclonal antibody 10F9 (antibody, IgG1, V domains shown) VH: EIQLQQSGPELVKPGASVKVSCKASGYSFTGYNMYWVKQSHGKSFEWIGYIDPYTGGTSYNQRFKGKATLTVDKSSSTAFMHLNSLTSEDSAIYYCALFYDYDGFPYWGQGTLVTVSA VL: DIVMTQSQKFMSTSVGDRVSVTCKASQNVDTNVAWYQQKPGQSPKALIYSASYRYSGVPDRFTGSGSGTDFTLTISNVQSEDLAEYFCQQYNSYPYTFGGGTKLEIK	98.9

Okay, here is my list. What is % Positive for each of these?
1. anti-Siglec-5 monoclonal antibody 8A1 (antibody, IgG1, V domains shown) VH: EIQLQQSGPELVKPGASVKVSCKASDYAFTSYNIYWVKQSHGKSLEWIGYIDPYNGGTSYNQTFKGKATLTVDKSSSTAYMHLNSLTSEDSAVYYCAMKVGYEAMDYWGQGTSVTVSS VL: DIVMTQSQKFMSTSVGDRVSVTCKASQNVGTYVAWYQQKPGQSPKALIYSASYRYSGVPDRFTGSGSGTDFTLNISNVQSEDLAEYFCQQFNSYPYTFGGGTKLEIK
2. anti-Siglec-5 monoclonal antibody 5H2 (antibody, IgG1, V domains shown) VH: EVQLQQSGPELVKPGASVKVSCKASGYSFTDYNMYWVKQSHGKSLEWIGYIDPYNGGTSYNQKFKGKATLTVDKSSSTAFMLLNSLTSEDSAVYYCALYYDYDGIPYWGQGTLVTVSA VL: DIVMTQSQKFMSTSVGDRVSVTCKASQNVGTNVAWYRQKPGQSPKALIYSASYRYNGVPDRFTGSGSGTDFTLTISNVQSEDLAEYFCQQYNSYPYTFGGGTKLEIK
3. anti-Siglec-5 monoclonal antibody 11C6 (antibody, IgG1, V domains shown, also called 1106) VH: QVQLQQSGAELVKPGASVKLSCKASGYTFTEYTIHWVKQRSGQGLEWIGWFYPGSGSIKYNEKFKDKATLTAVKSSSTVYMEFSRLTSEDSAVYFCARQDYDGLGFAYWGQGTLVTVSA VL: DVLMTQTPLSLPVSLGDQASISCRSSQTIVHSNGNTYLEWYLQKPGQSPKLLIYKVSNRFSGVPDRFSGSGSGTDFTLKISRVEAEDLGVYYCFQGSHVPWTFGGGTKLEIK
4. anti-Siglec-5 monoclonal antibody 11H3 (antibody, IgG1, V domains shown) VH: QVQLQQSGPELVKPGASVKVSCKASDYAFTSYNIYWVKQSHGKSLEWIGYIDPYNGGTSYNQTFKGKATLTVDKSSSTAYMHLNSLTSEDSAVYYCAMKVGYEAMDYWGQGTSVTVSS VL: DIQMTQSQKFMSTSVGDRVSVTCKASQNVGTNVAWYQQKPGQSPKALIYSASYRYSGVPDRFTGSGSGTDFTLNISNVQSEDLAEYFCQQFNSYPYTFGGGTKLEIK
5. anti-Siglec-5 monoclonal antibody 2G5 (antibody, IgG1, V domains shown) VH: EIQLQQSGPELVKPGASVKVSCKASGYSFTDYNMYWVKQSHGKSLEWIGYIDPYNGNTTYNQRFKGKATLTVDKSSSTAFMHLNSLTSEDAAVYYCATFYGFDGFAYWGQGSLVAVSA VL: QAVVTQESALTTSPGETVTLTCRSSTGAVTTSNYANWVQEKPDHLFTGLIGTTNNRAPGVPARFSGSLIGDKAALTITGAQTEDEAIYFCALWYSNHLVFGGGTKLTVLG
6. anti-Siglec-5 monoclonal antibody 8C3 (antibody, IgG1, V domains shown) VH: QVQLQQSGGGLVKPGTSVKLSCKASGYIFTEYIIHWVKQRSGQGLEWIGWFYPGIISIKYNEKFKDKATLTADKSSSTVYMELSRLTSEDSAVYFCAGHEGYDGAMDYWGQGTSVTVSS VL: DVLMTQTPLSLPVSLGDQASISCRCSQSIVHSNGNTYLEWYLQKPGQSPKLLIYRVSNRFSGVPDRFSGSGSGTDFTLKISRVEAEDLGVYYCFQGSHVPWTFGGGTKLEIK

1. 89
2. 98.1
3. 99.7
4. 97.8
5. 87.4
6. 96

From: patent US20210017275A1
